Biological target: [3H]PROG 16α-hydroxylating activity by male rat liver microsomes (CYP2C11) (Rattus norvegicus, UniProt P08683)
Sequence (P08683 whole entry): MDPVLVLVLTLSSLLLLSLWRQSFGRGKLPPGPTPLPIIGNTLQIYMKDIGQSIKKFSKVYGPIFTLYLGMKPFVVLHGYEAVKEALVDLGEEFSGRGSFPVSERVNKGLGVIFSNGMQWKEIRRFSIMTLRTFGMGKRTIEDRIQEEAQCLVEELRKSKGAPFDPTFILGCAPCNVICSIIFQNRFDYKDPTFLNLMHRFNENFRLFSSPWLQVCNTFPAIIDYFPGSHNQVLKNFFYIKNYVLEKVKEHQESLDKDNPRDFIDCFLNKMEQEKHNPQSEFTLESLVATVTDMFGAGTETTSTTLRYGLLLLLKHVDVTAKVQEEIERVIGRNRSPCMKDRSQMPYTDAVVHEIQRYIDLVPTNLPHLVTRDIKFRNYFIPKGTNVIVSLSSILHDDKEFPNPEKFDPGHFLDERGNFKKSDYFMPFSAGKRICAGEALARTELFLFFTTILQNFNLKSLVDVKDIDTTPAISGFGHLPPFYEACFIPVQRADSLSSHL
Assay: Inhibition of [3H]progesterone 16α-hydroxylation by adult male rat liver microsomes
Settings: molar concentration of unlabeled steroid causing 40% inhibition; [3H]PROG 20 nM; unlabeled steroid 0.01–10 μM; male rat liver microsomes
# Lookup of reported [3H]PROG16α-hydroxylation (IC40) keyed by entry
Kindly answer with a numeric value in nM, unit omitted.

CC(=O)[C@H]1CC[C@H]2[C@@H]3CC[C@H]4CC(=O)CC[C@]4(C)[C@H]3CC[C@]12C [compound 27, 5α-Pregnan-3,20-dione]	720
CC(=O)C1CCC2C3CC=C4CC(OS(=O)(=O)O)CCC4(C)C3CCC12C (centres unmarked) [compound 19, Pregnenolone-3-sulfate]	195
CC(=O)[C@H]1CC[C@H]2[C@@H]3CC[C@H]4C[C@H](O)CC[C@]4(C)[C@H]3[C@@H](O)C[C@]12C [compound 35, 3α,11β-Dihydroxy-5α-pregnan-20-one]	150

Lookup: For CC(=O)O[C@H]1CC[C@@]2(C)C(=CC[C@H]3[C@@H]4CC[C@H](C(C)=O)[C@@]4(C)CC[C@@H]32)C1 [compound 18, Pregnenolone-3-acetate] , what is its reported [3H]PROG16α-hydroxylation (IC40)?
Found: 800

The measured values listed here are drawn from paper PMC4970648.
